Below, each of the compounds is paired with its reported MIC value.
# System: Staphylococcus aureus
# experimentalDetails: Antimicrobial activity against methicillin-resistant Staphylococcus aureus ATCC 33592 after 18 to 24 hrs by alamar blue assay
# Format: functional
# cond: Staphylococcus aureus, ATCC 33592; read-out: MIC
Report as a plain number; the unit µg/mL is understood.

These recorded examples may help you get a feel for the data.
structureSmilesString: Cc1c(CC(=O)N[C@@H](C)C(=O)O)c(=O)oc2c(C)c3occ(-c4ccc(Cl)cc4)c3cc12
experimentalValue: 1.25
//
structureSmilesString: Cc1c(CC(=O)N[C@@H](C(=O)O)C(C)C)c(=O)oc2c(C)c3occ(-c4ccc(Cl)cc4)c3cc12
experimentalValue: 1.25

Query: Item Cc1c(CCC(=O)O)c(=O)oc2c(C)c3occ(-c4ccc(Br)cc4)c3cc12 has what recorded MIC?
Response: 1

Query: Item O=C(Nc1nnc(-c2ccc(Cl)cc2)o1)c1cccc(Cl)c1 has what recorded MIC?
Response: 0.25

###

# experimentalDetails: Inhibition of transglycosylase assessed as inhibition of NBD- labelled lipid II polymerization
Below, each of the molecules is paired with its reported IC90 value.

structureSmilesString: O=C(c1ccc(Cl)cc1)c1ccc(Oc2ccc(Cl)cc2)c(NC(=O)c2cc(I)cc(I)c2O)c1
IC90: < 25 µM

Query: Item O=C(Nc1ccc(Oc2ccc3ccccc3c2Cl)c(Cl)c1)c1cc(I)cc(I)c1O has what recorded IC90?
Response: > 100 µM

Query: Item O=C(Nc1ccc(NS(=O)(=O)c2ccc(Cl)cc2)cc1Cl)c1cc(Cl)ccc1O has what recorded IC90?
Response: > 100 µM

Query: Item Cc1ccc(C(C)C)c(Oc2cc(Cl)ccc2NC(=O)c2cc(Br)cc(Br)c2O)c1 has what recorded IC90?
Response: < 25 µM

###

# Test system: Staphylococcus aureus
# experimentalDetails: Antimicrobial activity against methicillin-resistant Staphylococcus aureus ATCC 33592 after 18 to 24 hrs by alamar blue assay
# Assay type: functional
# cond: Staphylococcus aureus, ATCC 33592; read-out: MIC
Below, each of the molecules is paired with its reported MIC value.
Report as a plain number; the unit µg/mL is understood.

These recorded examples may help you get a feel for the data.
molecule: COC(=O)c1c(NC(=O)c2ccc([N+](=O)[O-])o2)sc2c1CC(C)(C)NC2(C)C
experimentalSystem: Staphylococcus aureus
attributeMeasured: MIC
experimentalValue: 2

molecule: Cc1ccc(C(=O)c2cc(NC(=O)c3cc(I)cc(I)c3O)ccc2Cl)cc1
experimentalSystem: Staphylococcus aureus
attributeMeasured: MIC
experimentalValue: 4

molecule: O=C(Nc1ccc(Cl)c(Cl)c1)c1cc(Cl)cc(Cl)c1O [3,3',4',5-TETRACHLOROSALICYLANILIDE]
experimentalSystem: Staphylococcus aureus
attributeMeasured: MIC
experimentalValue: 1

Query: Quick check: MIC on Staphylococcus aureus, item O=C(Nc1cccc(C2=Nc3ccccc3C2)c1)c1ccc([N+](=O)[O-])o1 ?
Response: 0.25

Query: Quick check: MIC on Staphylococcus aureus, item COC(=O)c1ccccc1NC(=O)c1ccc([N+](=O)[O-])o1 ?
Response: 0.5

Query: Quick check: MIC on Staphylococcus aureus, item O=C(Nc1ccc(Sc2nc3ccccc3s2)c(Cl)c1)c1cc(Cl)cc(Cl)c1O ?
Response: 4

Query: Quick check: MIC on Staphylococcus aureus, item O=C(Nc1cc(Cl)ccc1Oc1ccc(Br)c2ccccc12)c1cc(Cl)cc(I)c1O ?
Response: 4
